Each recorded value in this set is attributed to ChEMBL document CHEMBL5291721.

target: Beta-1 adrenergic receptor (Homo sapiens); format: functional; note: assay procedure not described here
Sequence (P08588 whole entry): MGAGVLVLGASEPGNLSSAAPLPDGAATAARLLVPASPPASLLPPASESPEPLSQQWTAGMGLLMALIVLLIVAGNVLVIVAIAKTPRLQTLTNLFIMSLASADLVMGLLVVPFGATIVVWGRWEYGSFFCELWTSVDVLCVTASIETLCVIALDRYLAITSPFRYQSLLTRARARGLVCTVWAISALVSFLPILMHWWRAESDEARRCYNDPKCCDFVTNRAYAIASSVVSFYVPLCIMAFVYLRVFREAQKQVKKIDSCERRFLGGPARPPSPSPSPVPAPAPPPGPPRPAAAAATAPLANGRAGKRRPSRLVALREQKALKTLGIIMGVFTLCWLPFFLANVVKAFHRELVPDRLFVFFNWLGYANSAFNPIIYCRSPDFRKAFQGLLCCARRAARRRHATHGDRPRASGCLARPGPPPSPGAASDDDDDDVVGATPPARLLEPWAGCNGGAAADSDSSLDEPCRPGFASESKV
experimentalReadout: AC50

Sample C=C1/C(=C\C=C2/CCC[C@]3(C)[C@@H]([C@H](C)/C=C/[C@@H](O)C4CC4)CC[C@@H]23)C[C@@H](O)C[C@@H]1O [CALCIPOTRIENE] — what was its AC50?
> 30 µM

Sample Cc1ncc2n1-c1ccc(Cl)cc1C(c1ccccc1F)=NC2 [MIDAZOLAM] — what was its AC50?
> 10 µM

Sample Oc1ccc2c(c1)[C@@]13CCCC[C@@]1(O)[C@@H](C2)N(CC1CCC1)CC3 [BUTORPHANOL] — what was its AC50?
> 30 µM

Sample CC(=O)SC[C@@H](C)C(=O)N1CCC[C@H]1C(=O)N[C@@H](Cc1ccccc1)C(=O)O — what was its AC50?
> 30 µM

Sample CCC1(c2ccccc2)CCC(=O)NC1=O (configuration not stated) [GLUTETHIMIDE] — what was its AC50?
> 10 µM

Sample CO[C@H]1/C=C/O[C@@]2(C)Oc3c(C)c(O)c4c(O)c(c(/C=N/N5CCN(C)CC5)c(O)c4c3C2=O)NC(=O)/C(C)=C\C=C\[C@H](C)[C@H](O)[C@@H](C)[C@@H](O)[C@@H](C)[C@H](OC(C)=O)[C@@H]1C [RIFAMPIN] — what was its AC50?
28 µM

Sample CN(C)CCc1c[nH]c2ccc(Cn3cncn3)cc12 [RIZATRIPTAN] — what was its AC50?
> 10 µM

Sample CCOC(=O)C1=C(C)NC(C)=C(C(=O)OC)C1c1cccc([N+](=O)[O-])c1 (configuration not stated) [NITRENDIPINE] — what was its AC50?
> 10 µM

Sample C[C@@H](NCCCc1cccc(C(F)(F)F)c1)c1cccc2ccccc12 — what was its AC50?
8.8 µM

Sample CC(=O)[C@@]1(O)CC[C@H]2[C@@H]3C=C(Cl)C4=CC(=O)[C@@H]5C[C@@H]5[C@]4(C)[C@H]3CC[C@@]21C [CYPROTERONE] — what was its AC50?
> 10 µM

Sample CCN1CCN(Cc2ccc(Nc3ncc(F)c(-c4cc(F)c5nc(C)n(C(C)C)c5c4)n3)nc2)CC1 [ABEMACICLIB] — what was its AC50?
> 30 µM

Sample Cn1c(=O)cc(N2CCC[C@@H](N)C2)n(Cc2ccccc2C#N)c1=O [ALOGLIPTIN] — what was its AC50?
> 10 µM

Sample CN(C(=O)c1c(O)c2ccccc2n(C)c1=O)c1ccccc1 [ROQUINIMEX] — what was its AC50?
> 30 µM

Sample C=CCNc1nc(NCC=C)nc(N2CCN(C(c3ccc(F)cc3)c3ccc(F)cc3)CC2)n1 [ALMITRINE] — what was its AC50?
> 30 µM

Sample CCCCCCCCCCCCCCCCCCCCCC(=O)Nc1ccn([C@@H]2O[C@H](CO)[C@@H](O)[C@@H]2O)c(=O)n1 [ENOCITABINE] — what was its AC50?
> 30 µM

Sample CC(C)Cc1ccc(C(C)C(=O)O)cc1 (configuration not stated) [IBUPROFEN] — what was its AC50?
> 10 µM

Sample CC12CC3CC(C)(C1)CC(N)(C3)C2 [MEMANTINE] — what was its AC50?
> 10 µM

Sample CC(C(=O)O)c1ccc2c(c1)[nH]c1ccc(Cl)cc12 (configuration not stated) [CARPROFEN] — what was its AC50?
> 30 µM

Sample COc1cc2c(cc1OC)C(CCc1ccc(Cl)cc1)N(C)CC2 (configuration not stated) [METHOPHOLINE] — what was its AC50?
> 30 µM

Sample O=C1C(CC[S+]([O-])c2ccccc2)C(=O)N(c2ccccc2)N1c1ccccc1 (configuration not stated) [SULFINPYRAZONE] — what was its AC50?
> 10 µM

Sample Cc1cc(C(C)(C)C)cc(C)c1CC1=NCCN1 [XYLOMETAZOLINE] — what was its AC50?
> 30 µM

Sample CCCN(CCC)C(=O)Cc1c(-c2ccc(Cl)cc2)nc2ccc(Cl)cn12 [ALPIDEM] — what was its AC50?
> 30 µM

Sample CN(C)CCCNc1c2ccccc2nc2cccc([N+](=O)[O-])c12 [NITRACRINE] — what was its AC50?
> 30 µM

Sample CN1C[C@H](C(=O)N[C@]2(C)O[C@@]3(O)[C@@H]4CCCN4C(=O)[C@H](Cc4ccccc4)N3C2=O)C=C2c3cccc4[nH]cc(c34)C[C@H]21 [ERGOTAMINE] — what was its AC50?
> 30 µM

Sample C[C@H]1c2cccc(O)c2C(=O)C2=C(O)[C@]3(O)C(=O)C(C(N)=O)=C(O)[C@@H](N(C)C)[C@@H]3[C@@H](O)[C@@H]21 [DOXYCYCLINE] — what was its AC50?
> 10 µM

Sample C[C@]12CC[C@@H]3c4ccc(O)cc4C[C@@H](CCCCCCCCC[S+]([O-])CCCC(F)(F)C(F)(F)F)[C@H]3[C@@H]1CC[C@@H]2O (some centres not stated) [FULVESTRANT] — what was its AC50?
> 30 µM

Sample Cc1onc(-c2ccccc2)c1-c1ccc(S(N)(=O)=O)cc1 [VALDECOXIB] — what was its AC50?
8.32 µM

Sample CN1CCN(C2=Nc3ccccc3Oc3ccc(Cl)cc32)CC1 [LOXAPINE] — what was its AC50?
> 10 µM

Sample NC1CCN(c2nc3c(cc2F)c(=O)c(C(=O)O)cn3-c2ccc(F)cc2F)C1 (configuration not stated) [TOSUFLOXACIN] — what was its AC50?
> 30 µM

Sample COCC1=C(C(=O)O)N2C(=O)[C@@H](NC(=O)/C(=N\OC)c3csc(N)n3)[C@H]2SC1 [CEFPODOXIME] — what was its AC50?
> 30 µM

Sample Cc1cc2cc3c(C)cc(=O)oc3c(C)c2o1 [TRIOXSALEN] — what was its AC50?
> 10 µM

Sample CC(C)[C@H](N)C(=O)OCC(CO)OCn1cnc2c(=O)nc(N)[nH]c21 (some centres not stated) [VALGANCICLOVIR] — what was its AC50?
> 30 µM
